- experimental target: human TAS2R4 (Homo sapiens)
- Construct: expressed in transfected cells; host or cells: HEK293T-Gα16gust44
- Sequence (Q9NYW5 1-299): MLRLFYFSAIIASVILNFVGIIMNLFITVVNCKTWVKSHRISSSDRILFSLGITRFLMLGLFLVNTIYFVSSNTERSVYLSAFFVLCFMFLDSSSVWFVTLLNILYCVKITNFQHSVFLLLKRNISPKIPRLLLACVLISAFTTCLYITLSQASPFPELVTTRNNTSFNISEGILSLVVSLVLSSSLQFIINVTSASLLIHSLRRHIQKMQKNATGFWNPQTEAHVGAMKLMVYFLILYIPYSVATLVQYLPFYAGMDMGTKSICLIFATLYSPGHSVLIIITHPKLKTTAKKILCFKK
- assay procedure: Calcium imaging assay (FLIPR), HEK293T-Gα16gust44 cells transfected with human TAS2R4; also: test concentration or dose not given here
- Format: cell-based
- experimental parameters: Time (s) 329.547
Here, each record is paired with measured RLU, fluorescence trace data.
The response must be a number in RLU with no trailing unit.

Example entries and their recorded answers appear below.
# molecule, RLU, fluorescence trace [RLU]
rows = [
    ("C[C@H](CCC(=O)NCC(=O)O)[C@H]1CC[C@H]2[C@@H]3[C@H](O)C[C@@H]4C[C@H](O)CC[C@]4(C)[C@H]3C[C@H](O)[C@]12C [Glycocholic Acid, glycocholic acid]", 117.665),
    ("C[C@H](CCC(=O)O)[C@H]1CC[C@H]2[C@@H]3[C@@H](O)C[C@@H]4C[C@H](O)CC[C@]4(C)[C@H]3CC[C@]12C [Ursodeoxycholic Acid, ursodeoxycholic acid]", 131.935),
    ("C[C@H](CCC(=O)NCCS(=O)(=O)O)[C@H]1CC[C@H]2[C@@H]3[C@H](O)C[C@@H]4C[C@H](O)CC[C@]4(C)[C@H]3C[C@H](O)[C@]12C [Taurocholic Acid, taurocholic acid]", 196.926),
]

Q) So what does the record say about RLU, fluorescence trace for C[C@H](CCC(=O)O)[C@H]1CC[C@H]2[C@@H]3CC[C@@H]4C[C@H](O)CC[C@]4(C)[C@H]3C[C@H](O)[C@]12C [Deoxycholic Acid, deoxycholic acid] ?
A) 362.796

Q) So what does the record say about RLU, fluorescence trace for C[C@H](CCC(=O)NCCS(=O)(=O)O)[C@H]1CC[C@H]2[C@@H]3CC[C@@H]4C[C@H](O)CC[C@]4(C)[C@H]3CC[C@]12C [Taurolithocholic Acid, taurolithocholic acid] ?
A) 124.756

Q) So what does the record say about RLU, fluorescence trace for C[C@H](CCC(=O)O)[C@H]1CC[C@H]2[C@@H]3[C@H](O)C[C@@H]4C[C@H](O)CC[C@]4(C)[C@H]3C[C@H](O)[C@]12C [Cholic Acid, cholic acid] ?
A) 259.586

Attribution: paper PMC10247784
